# cell viability annotations
- Test system: SEM cells
- ASSAY: cell viability relative to DMSO control; higher = less cytotoxic
- RUN CONDITIONS: RPMI 5 mM glucose + 10% FBS; 48 h; 15.4 µM
Number first, unit second.

Use the examples below as a reference point.
In [3]: df
Out[3]:
                                   compound  value
0  C/C1=C/C(=C(/CNC(=O)C2=CC(=CC3=C2C=N[N]3C4CCCC4)C5=CC=C(CN6CCOCC6)C=C5)C(=O)N1)C  67.5%
1  CC(C)(Sc1cc(C(C)(C)C)c(O)c(C(C)(C)C)c1)Sc1cc(C(C)(C)C)c(O)c(C(C)(C)C)c1  95.4%

[in] # lookup: cell viability of NC(=O)c1nnn(Cc2cc(Cl)c(C(=O)c3ccc(Cl)cc3)c(Cl)c2)c1N
[out] 106%

[in] # lookup: cell viability of Clc1ccc(C(c2ccccc2Cl)C(Cl)Cl)cc1 (stereo not given)
[out] 97.6%

[in] # lookup: cell viability of CCC[C@H](Nc1nc(-c2ccc(NC(=O)NCC)c(OC)c2)ncc1C)c1cccnc1
[out] 6.69%

----------
- Tested on: NOMO1
- ASSAY: cell viability relative to DMSO control; higher = less cytotoxic
- RUN CONDITIONS: RPMI 5 mM glucose + 10% dialyzed FBS; 48 h; 0.000781 µM
RESULT TYPE: cell viability (%)
Dear colleague, please return just the value in %, with no unit written.

SMILES REPR	cell viability [%]
COc1ccc(/C=C/C(=O)Nc2ccccc2C(=O)O)cc1OC	104

[in] # lookup: cell viability of Nc1nccc(-c2ccc3noc(-c4ccc(Cl)cc4)c3c2)n1
[out] 121

[in] # lookup: cell viability of CC1(C)[C@@H](O)CC[C@@]2(C)[C@H]1CC[C@]3(C)[C@@H]2C(=O)\C=C/4[C@@H]5C[C@](C)(CC[C@]5(C)CC[C@@]34C)C(O)=O
[out] 104

[in] # lookup: cell viability of O=C1c2ccccc2-c2n[nH]c3cccc1c23
[out] 101

[in] # lookup: cell viability of Cc1cnc(Nc2cccc(CN3CCOCC3)c2)nc1Nc1cccc([S+](=O)([O-])NC(C)(C)C)c1
[out] 84

[in] # lookup: cell viability of CCn1c(C(=O)N(C2CC2)C2CC2)cc2c3c(ncn3C)c(Nc3cc(C)n(C)n3)nc21
[out] 84.1

[in] # lookup: cell viability of COc1cc(N2CCC(N3CCN(C)CC3)CC2)ccc1Nc1ncc(Cl)c(Nc2ccccc2[S+](=O)([O-])C(C)C)n1
[out] 78.3

[in] # lookup: cell viability of CO[C@H]1C[C@@H]2CC[C@@H](C)[C@@](O)(O2)C(=O)C(=O)N2CCCC[C@H]2C(=O)O[C@H]([C@@H](C)C[C@@H]2CC[C@@H](O)[C@H](OC)C2)CC(=O)[C@H](C)/C=C(\C)[C@@H](O)[C@@H](OC)C(=O)[C@H](C)C[C@H](C)/C=C/C=C/C=C/1C
[out] 112

[in] # lookup: cell viability of C[C@@H]1CC[C@@]2(CC[C@]3(C)\C(=C/C[C@@H]4[C@@]5(C)C[C@@H](O)[C@H](O)[C@@](C)(CO)[C@@H]5CC[C@@]34C)[C@@H]2[C@H]1C)C(O)=O
[out] 104
